Each entry below carries its reported koff.
- measured_on: human PD-L1/His fusion protein (human, UniProt Q9NZQ7 19-239)
- Sequence (Q9NZQ7 19-239 limits assumed): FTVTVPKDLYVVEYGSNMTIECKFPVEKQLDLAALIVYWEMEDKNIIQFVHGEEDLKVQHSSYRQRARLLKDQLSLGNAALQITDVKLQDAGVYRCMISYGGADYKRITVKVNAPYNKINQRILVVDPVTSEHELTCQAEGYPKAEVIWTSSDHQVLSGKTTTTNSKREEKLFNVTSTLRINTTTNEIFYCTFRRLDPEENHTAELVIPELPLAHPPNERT
- assay_details: BLI Octet RED96, antibody on AHC sensor, single conc. PD-L1/His; test group 2

binder	koff (s⁻¹)
HuEM0005-90-12 (antibody, human IgG1, V domains shown) VH: EVQLVQSGAEVKKPGASVKVSCKTSGYTFTSHSINWVRQATGQGLEWIGYMYIGNGYTEYNEKFKGRATLTSNTSISTAYMELSSLRSEDTAVYYCAKITPVVAPYVMDYWGQGTSVTVSS VL: DIVMTQSPSFLSASVGDRVTITCKASQDVGTAVAWYQQKPGKAPKLLIYWASTRHTGVPSRFSGSGSGTDFTLTISSLQPEDFATYYCQQYSSYPYTFGQGTKLEIK	0.000342
HuEM0005-87-7 (antibody, human IgG1, V domains shown) VH: EVQLVQSGAEVKKPGASVKVSCKASGYTFTDYYINWVRQAPGQGLEWMGETIPNTGGTTYNQKFKARVTLTVDTSTSTVYMELSSLRSEDTAVYYCARYQSGSPFAYWGQGTTVTVSS VL: EIVMTQSPATLSVSPGERATLSCKASQNVGTAVAWYQQKPGQAPRLLIYSASNRYTGIPARFSGSGSGTEFTLTISSLQSEDFAVYYCQQHYSTPYTFGGGTKLEIK	0.000709
EM0005-mAb90c (antibody, human IgG1, kappa, V domains shown, Chimeric full-length IgG1; also called EM0005-90c) VH: QVQLKQSGAELVRPGSSVKMSCKTSGYTFTSHSINWVKQRPGQGLEWIGYMYIGNGYTEYNEKFKGKATLTSDTSSTTAYMQLSSLTSEDSAIYFCAKITPVVAPYVMDYWGQGTSVTVSS VL: DIVMTQTHKFMSTSVGDRVSITCKASQDVGTAVAWYQQKPGQSPKLLIYWASTRHTGVPDRFTGSGSGTDFTLTISNVQSEDLADYFCQQYSSYPYTFGGGTKLELKR	0.000342
